Origin of values: paper PMC11620506

half-life overview
Assay Method Text: in vivo
Experimental Conditions: male, ICR, mouse, iv, 5 mg/kg, T1/2, terminal half-life in plasma, mice, diphenoxylate 5 mg/kg intravenously, analyte in plasma, mean ± SEM, three mice
// return numeric value only (unit: h, not printed)

Look up and report measured half-life for this entry: N#CC(CCN1CCC(C(=O)O)(c2ccccc2)CC1)(c1ccccc1)c1ccccc1 [Difenoxin, difenoxin]
6.4

Look up and report measured half-life for this entry: CCOC(=O)C1(c2ccccc2)CCN(CCC(C#N)(c2ccccc2)c2ccccc2)CC1 [Diphenoxylate, diphenoxylate]
6.4

====

CC50 overview
Assay Method Text: in vitro
Experimental Conditions: African green monkey
// return numeric value only (unit: µM, not printed)

Fc1ccc(C(c2ccc(F)cc2)N2CCN(C/C=C/c3ccccc3)CC2)cc1 [Flunarizine, flunarizine]
30.6
Cc1cccc(CN2CCN(C(c3ccccc3)c3ccc(Cl)cc3)CC2)c1 (stereo not drawn) [Meclizine, meclizine]
89.5

Look up and report measured CC50 for this entry: COC(=O)C1=C(C)NC(C)=C(C(=O)OCCN2CCN(C(c3ccccc3)c3ccccc3)CC2)C1c1cccc([N+](=O)[O-])c1 (stereo not drawn) [Manidipine, manidipine]
46.6

====

CC50 overview
Assay Method Text: in vitro
Experimental Conditions: African green monkey

CCOC(=O)C1(c2ccccc2)CCN(CCC(C#N)(c2ccccc2)c2ccccc2)CC1 [Diphenoxylate, diphenoxylate]
> 100 µM
N#CC(CCN1CCC(C(=O)O)(c2ccccc2)CC1)(c1ccccc1)c1ccccc1 [Difenoxin, difenoxin]
> 100 µM

Now take the following compound into account.
Look up and report measured CC50 for this entry: CCC(CC)COC(=O)[C@H](C)N[P@](=O)(OC[C@H]1O[C@@](C#N)(c2ccc3c(N)ncnn23)[C@H](O)[C@@H]1O)Oc1ccccc1 [RDV, remdesivir]
> 100 µM
